System: OCI-Ly3 cell lines
Assay: Proliferation inhibition test, ABC-DLBCL cell line OCI-Ly3
Assay type: cell-based
Conditions: Homo sapiens; OCI-Ly3 (ABC-DLBCL, NF-κB pathway-dependent); 96 hours; Cell Counting Kit-8; read-out: Proliferation inhibitory activity against OCI-Ly3 IC50
IC50 listing for selected compounds.

{"compound": "CCCn1cc(C(=O)c2cnn(-c3cncc4c(F)cccc34)c2C(F)(F)F)c2cc(Cl)c(-c3ncccn3)nc21", "IC50 [nM]": 140}
{"compound": "C[C@@H]1CC(C(=O)c2cn(C3COC3)c3nc(-c4ncccn4)c(Cl)cc23)C[C@@H](C)N1c1ncc(F)cc1I (stereo partly drawn)", "IC50 [nM]": 440}
{"compound": "Cn1cc(C(=O)c2cnn(-c3cccc4nnsc34)c2C(F)(F)F)c2cc(Cl)c(-n3nccn3)nc21", "IC50 [nM]": 610}
{"compound": "O=C(c1cnn(-c2cccc3c(=O)[nH]ccc23)c1C(F)(F)F)c1cn(C2CCC2)c2nc(-n3nccn3)c(Cl)cc12", "IC50 [nM]": 870}
{"compound": "C[C@@H]1CC(C(=O)c2cn(C3COC3)c3nc(-n4nccn4)c(Cl)cc23)C[C@@H](C)N1c1ncc(F)cc1I (stereo partly drawn)", "IC50 [nM]": 620}
{"compound": "C[C@@H]1C[C@H](C(=O)c2cn(C)c3nc(-n4nccn4)c(Cl)cc23)CCN1c1ccc(F)cc1N (racemic)", "IC50 [nM]": 520}
{"compound": "C[C@@H]1CC(C(=O)c2cn(CC#N)c3nc(-n4nccn4)c(Cl)cc23)C[C@@H](C)N1c1ncc(F)cc1I (stereo partly drawn)", "IC50 [nM]": 580}
{"compound": "CC(=O)N1CC(n2cc(C(=O)C3C[C@@H](C)N(c4ncc(F)cc4I)[C@H](C)C3)c3cc(Cl)c(-n4nccn4)nc32)C1 (stereo partly drawn)", "IC50 [nM]": 310}
{"compound": "Cn1cc(C(=O)c2cnn(-c3cccc4nnsc34)c2C(F)(F)F)c2cc(Cl)c(-c3ncccn3)nc21", "IC50 [nM]": 1000}
{"compound": "C[C@@H]1CC(C(=O)c2cn(C3CC3)c3nc(-n4nccn4)c(Cl)cc23)C[C@@H](C)N1c1ncc(F)cc1I (stereo partly drawn)", "IC50 [nM]": 720}
{"compound": "C[C@@H]1CC(C(=O)c2cn(CCCO)c3nc(-n4nccn4)c(Cl)cc23)C[C@@H](C)N1c1ncc(F)cc1I (stereo partly drawn)", "IC50 [nM]": 720}
{"compound": "C[C@@H]1CC(C(=O)c2cn([C@H]3CCOC3)c3nc(-n4nccn4)c(Cl)cc23)C[C@@H](C)N1c1ncc(F)cc1I (stereo partly drawn)", "IC50 [nM]": 540}
{"compound": "C[C@@H]1CC(C(=O)c2cn(CCCO)c3nc(-c4ncccn4)c(Cl)cc23)C[C@@H](C)N1c1ncc(F)cc1I (stereo partly drawn)", "IC50 [nM]": 480}
{"compound": "C[C@@H]1CC(C(=O)c2cn(C)c3nc(-c4ncccn4)c(Cl)cc23)C[C@@H](C)N1c1ncc(F)cc1I (stereo partly drawn)", "IC50 [nM]": 290}
{"compound": "Cn1cc(C(=O)c2cnn(-c3cccn4nccc34)c2C(F)(F)F)c2cc(Cl)c(-n3nccn3)nc21", "IC50 [nM]": 380}
{"compound": "C[C@@H]1CC(C(=O)c2cn(C3CCOCC3)c3nc(-n4nccn4)c(Cl)cc23)C[C@@H](C)N1c1ncc(F)cc1I (stereo partly drawn)", "IC50 [nM]": 480}
{"compound": "C[C@@H]1CC(C(=O)c2cn(C)c3nc(-n4nccn4)c(Cl)cc23)C[C@@H](C)N1c1ncc(F)cc1I (stereo partly drawn)", "IC50 [nM]": 300}
{"compound": "CCn1cc(C(=O)c2cnn(-c3cncc4c(F)cccc34)c2C(F)(F)F)c2cc(Cl)c(-c3ncccn3)nc21", "IC50 [nM]": 110}
{"compound": "COc1nc2c(cc1Cl)c(C(=O)c1cnn(-c3cncc4c(F)cccc34)c1C(F)(F)F)cn2C", "IC50 [nM]": 140}
{"compound": "C[C@@H]1C[C@H](C(=O)c2c[nH]c3nc(C(=O)N4CCNCC4)c(Cl)cc23)CCN1c1ncc(F)cc1Cl (racemic)", "IC50 [nM]": 630}
{"compound": "CCCn1cc(C(=O)c2cnn(-c3cncc4c(F)cccc34)c2C(F)(F)F)c2cc(Cl)c(-n3nccn3)nc21", "IC50 [nM]": 110}
{"compound": "Cn1cc(C(=O)c2cnn(-c3ccnc4sccc34)c2C(F)(F)F)c2cc(Cl)c(-n3nccn3)nc21", "IC50 [nM]": 180}
{"compound": "CCn1cc(C(=O)C2C[C@@H](C)N(c3ncc(F)cc3I)[C@H](C)C2)c2cc(Cl)c(-c3ncccn3)nc21 (stereo partly drawn)", "IC50 [nM]": 480}
{"compound": "C[C@@H]1CC(C(=O)c2cn([C@@H]3CCOC3)c3nc(-n4nccn4)c(Cl)cc23)C[C@@H](C)N1c1ncc(F)cc1I (stereo partly drawn)", "IC50 [nM]": 530}
{"compound": "CC(C)n1cc(C(=O)C2C[C@@H](C)N(c3ncc(F)cc3I)[C@H](C)C2)c2cc(Cl)c(-n3nccn3)nc21 (stereo partly drawn)", "IC50 [nM]": 690}
{"compound": "Cn1cc(C(=O)c2cnn(-c3cccn4c(=O)cccc34)c2C(F)(F)F)c2cc(Cl)c(-n3nccn3)nc21", "IC50 [nM]": 150}
{"compound": "C[C@@H]1CC(C(=O)c2cn(C3CCS(=O)(=O)CC3)c3nc(-n4nccn4)c(Cl)cc23)C[C@@H](C)N1c1ncc(F)cc1I (stereo partly drawn)", "IC50 [nM]": 240}
